# Test system: T1, hIL-4Rα on cells (human, UniProt P24394 26-825)
# T1 sequence: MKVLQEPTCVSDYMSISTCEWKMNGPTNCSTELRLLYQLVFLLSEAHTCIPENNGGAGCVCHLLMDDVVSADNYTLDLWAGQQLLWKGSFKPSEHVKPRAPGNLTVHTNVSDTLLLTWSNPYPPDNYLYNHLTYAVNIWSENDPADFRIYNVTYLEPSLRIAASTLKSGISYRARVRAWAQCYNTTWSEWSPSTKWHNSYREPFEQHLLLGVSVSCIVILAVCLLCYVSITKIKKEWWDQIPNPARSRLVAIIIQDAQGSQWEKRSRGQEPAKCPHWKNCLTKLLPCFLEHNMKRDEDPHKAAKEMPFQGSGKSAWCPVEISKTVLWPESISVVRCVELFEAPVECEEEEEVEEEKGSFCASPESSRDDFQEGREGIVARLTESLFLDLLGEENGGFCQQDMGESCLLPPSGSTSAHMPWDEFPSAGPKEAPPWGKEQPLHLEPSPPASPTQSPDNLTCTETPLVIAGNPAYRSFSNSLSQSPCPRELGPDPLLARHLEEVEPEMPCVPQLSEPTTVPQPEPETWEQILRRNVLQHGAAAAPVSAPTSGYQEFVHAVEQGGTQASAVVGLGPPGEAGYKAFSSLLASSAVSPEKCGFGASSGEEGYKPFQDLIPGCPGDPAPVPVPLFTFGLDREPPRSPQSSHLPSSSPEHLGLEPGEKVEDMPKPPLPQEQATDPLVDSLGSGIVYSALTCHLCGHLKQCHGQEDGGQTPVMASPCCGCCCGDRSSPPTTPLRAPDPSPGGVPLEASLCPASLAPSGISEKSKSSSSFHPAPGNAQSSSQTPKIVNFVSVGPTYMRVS
# Measurement description: cell-based or functional assay
# Lookup of reported Relative Inhibition of IL-4 induced TARC IC50 keyed by entry

Construct 12 (mAb421) (antibody, IgG4, V domains shown, VH/VL only) VH: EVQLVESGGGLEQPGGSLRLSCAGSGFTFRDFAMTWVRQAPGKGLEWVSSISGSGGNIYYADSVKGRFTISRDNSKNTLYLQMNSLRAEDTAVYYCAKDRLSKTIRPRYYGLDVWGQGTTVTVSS VL: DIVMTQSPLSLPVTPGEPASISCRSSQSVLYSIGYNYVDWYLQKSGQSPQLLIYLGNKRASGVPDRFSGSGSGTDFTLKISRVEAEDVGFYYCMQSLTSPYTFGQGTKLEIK : 0.38 relative to dupilumab

// next item, Relative Inhibition of IL-4 induced TARC IC50 requested
Please fill in: Relative Inhibition of IL-4 induced TARC IC50 reported for Construct 35 (mAb467) (antibody, IgG4, V domains shown, VH/VL only) VH: EVQLVESGGGLEQPGGSLRLSCAGSGFTFRTYAMTWVRQAPGKGLEWVSSISGSGGNTYYADSVKGRFTISRDNSKNTLYLQMNSLRAEDTAVYYCAKDRVSITIRPRYYGLDVWGQGTTVTVSS VL: DIVMTQSPLSLPVTPGEPASISCTSSQSLLYSIGKNYVDWYLQKSGQSPQLLIYEGNNRATGVPDRFSGSGSGTDFTLKISRVEAEDVGFYYCMQSLTSPYTFGQGTKLEIK = 1.92 relative to dupilumab

The reported measurements were obtained from patent US20260193366A1.
